Listing of entries alongside the reported pIC50.
# MEASURED TARGET: recombinant TASK-1 (Homo sapiens (Human))
# ASSAY TEXT: Inhibition of recombinant TASK-1 in stably transfected CHO cells (KCl-induced depolarization, voltage-sensitive dye, FLIPR)
# Format: cell-based
# ASSAY CONTEXT: depolarization induced by 40 mM potassium chloride, some mean values from multiple determinations
pIC50: −log10 of the molar value.
REPORTED PROPERTY: pIC50

{"columns": ["COMPOUND", "RECORDED VALUE"],
 "data": [
  ["COc1ccc(F)c(C(=O)N2CCC3CCC2CN3Cc2c(-c3ccc(Cl)cc3)nc3ccccn23)n1 (stereo not drawn) [Example 27]", 6.82],
  ["COc1cccc(C(=O)N2CC3CCC2CN(Cc2c(-c4ccc(Cl)cc4)nc4ccccn24)C3)n1 (single isomer, unassigned) [Example 95]", 5.31],
  ["COc1ccc(Cl)c(C(=O)N2CCC3CCC(C2)N3Cc2c(-c3ccc(C(C)C)cc3)nc3ncccn23)n1 (stereo not drawn) [Example 59]", 5.96]
]}

====

Quick list: pIC50 per entry.
# MEASURED TARGET: recombinant TASK-1 (Homo sapiens (Human))
# ASSAY TEXT: Inhibition of recombinant TASK-1 in stably transfected CHO cells (KCl-induced depolarization, voltage-sensitive dye, FLIPR)
# Assay type: cell-based
# ASSAY CONTEXT: depolarization induced by 40 mM potassium chloride, some mean values from multiple determinations
pIC50: −log10 of the molar value.

{"columns": ["COMPOUND", "pIC50"],
 "data": [
  ["COc1cccc(C(=O)N2CCC3CCC2CN3Cc2c(-c3ccc(Cl)cc3)nc3ccccn23)n1 (centres unmarked) [Example 26]", 6.08],
  ["COc1ccc(F)c(C(=O)N2C3CCC2CN(Cc2c(-c4ccc(C(C)C)cc4)nc4ncccn24)CC3)n1 (centres unmarked) [Example 103]", 5.85],
  ["Nc1nonc1C(=O)N1CCC2CCC1CN2Cc1c(-c2ccc(Cl)cc2)nc2ccccn12 (centres unmarked) [Example 29]", 6.18],
  ["Cc1nonc1C(=O)N1C2CCN(Cc3c(-c4ccc(Cl)cc4)nc4ncccn34)CC1COC2 (racemic) [Example 76]", 5.85],
  ["O=C(c1ccccc1F)N1C2CCC1CN(Cc1c(-c3ccc(Cl)cc3)nc3ccccn13)CC2 (racemic) [Example 69]", 5.85]
]}

====

# MEASURED TARGET: recombinant TASK-3 (Homo sapiens (Human))
# Sequence (Q9NPC2 whole entry): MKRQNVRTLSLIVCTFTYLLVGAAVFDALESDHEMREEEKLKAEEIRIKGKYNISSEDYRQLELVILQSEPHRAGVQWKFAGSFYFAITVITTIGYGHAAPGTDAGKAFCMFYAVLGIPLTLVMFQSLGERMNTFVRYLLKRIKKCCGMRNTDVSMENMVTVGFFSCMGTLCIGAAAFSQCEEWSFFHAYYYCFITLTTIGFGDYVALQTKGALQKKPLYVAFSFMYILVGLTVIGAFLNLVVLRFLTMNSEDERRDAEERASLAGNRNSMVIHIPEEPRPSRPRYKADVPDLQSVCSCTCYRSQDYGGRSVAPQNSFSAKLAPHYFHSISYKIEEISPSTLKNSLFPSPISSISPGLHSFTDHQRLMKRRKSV
# ASSAY TEXT: Inhibition of recombinant TASK-3 in stably transfected CHO cells (KCl-induced depolarization, voltage-sensitive dye, FLIPR)
# Assay type: cell-based
# ASSAY CONTEXT: depolarization induced by 40 mM potassium chloride, some mean values from multiple determinations
This listing pairs molecules with measured IC50.
REPORTED PROPERTY: IC50 (nM)

{"columns": ["MOLECULE", "REPORTED PROPERTY", "RECORDED VALUE"],
 "data": [
  ["COc1ccc(F)c(C(=O)N2C3CCC2CN(Cc2c(-c4ccc(Cl)cn4)nc4ccccn24)CC3)n1 (single isomer, unassigned) [Example 16]", "IC50", 65],
  ["COc1cccc(C(=O)N2C3CCN(Cc4c(-c5ccc(Cl)cc5)nc5ncccn45)CC2COC3)n1 (racemic)", "IC50", 77],
  ["COc1cccc(C(=O)N2CCC3CCC2CN3Cc2c(-c3ccc(C(C)C)cc3)nc3ncccn23)n1 (stereo not drawn) [Example 41]", "IC50", 160]
]}

====

This section presents compounds with their documented IC50 values.
# MEASURED TARGET: recombinant TASK-1 (Homo sapiens (Human), UniProt O14649)
# Sequence (O14649 whole entry): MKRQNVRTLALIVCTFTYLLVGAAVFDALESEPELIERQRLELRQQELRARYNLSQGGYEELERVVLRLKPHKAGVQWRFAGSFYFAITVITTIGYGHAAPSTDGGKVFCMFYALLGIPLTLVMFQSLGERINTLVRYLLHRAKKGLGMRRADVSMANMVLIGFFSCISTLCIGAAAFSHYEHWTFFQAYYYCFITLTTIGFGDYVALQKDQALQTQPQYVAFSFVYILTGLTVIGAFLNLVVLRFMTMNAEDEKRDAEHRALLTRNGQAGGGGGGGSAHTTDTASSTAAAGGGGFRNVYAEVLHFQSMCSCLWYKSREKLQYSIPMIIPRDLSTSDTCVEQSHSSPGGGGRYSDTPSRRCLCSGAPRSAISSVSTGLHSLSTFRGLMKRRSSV
# ASSAY TEXT: Inhibition of recombinant TASK-1 in stably transfected CHO cells (KCl-induced depolarization, voltage-sensitive dye, FLIPR)
# Type: cell-based
# ASSAY CONTEXT: depolarization induced by 40 mM potassium chloride, some mean values from multiple determinations
REPORTED PROPERTY: IC50 (nM)

{"columns": ["COMPOUND", "RECORDED VALUE"],
 "data": [
  ["CC(C)c1ccc(-c2nc3ncccn3c2CN2C3CCC2CN(C(=O)C2CCCC2)CC3)cc1 (stereo not drawn) [Example 62]", 8400],
  ["O=C(c1ccccc1F)N1C2CCC1CN(Cc1c(-c3ccc(Cl)cc3)nc3ncccn13)CC2 (single isomer, unassigned; (-)) [Example 81]", 590],
  ["Cc1nonc1C(=O)N1C2CCN(Cc3c(-c4ccc(Cl)cc4)nc4ccccn34)CC1COC2 (racemic) [Example 73]", 99]
]}

Source listed as patent US11208422B2.
